Some compounds, each annotated with its measured Amax, maximum % activation achieved (95% CI).
- target-system: recombinant rat Nln (Rattus norvegicus, UniProt P42676)
- Sequence (P42676 38-704): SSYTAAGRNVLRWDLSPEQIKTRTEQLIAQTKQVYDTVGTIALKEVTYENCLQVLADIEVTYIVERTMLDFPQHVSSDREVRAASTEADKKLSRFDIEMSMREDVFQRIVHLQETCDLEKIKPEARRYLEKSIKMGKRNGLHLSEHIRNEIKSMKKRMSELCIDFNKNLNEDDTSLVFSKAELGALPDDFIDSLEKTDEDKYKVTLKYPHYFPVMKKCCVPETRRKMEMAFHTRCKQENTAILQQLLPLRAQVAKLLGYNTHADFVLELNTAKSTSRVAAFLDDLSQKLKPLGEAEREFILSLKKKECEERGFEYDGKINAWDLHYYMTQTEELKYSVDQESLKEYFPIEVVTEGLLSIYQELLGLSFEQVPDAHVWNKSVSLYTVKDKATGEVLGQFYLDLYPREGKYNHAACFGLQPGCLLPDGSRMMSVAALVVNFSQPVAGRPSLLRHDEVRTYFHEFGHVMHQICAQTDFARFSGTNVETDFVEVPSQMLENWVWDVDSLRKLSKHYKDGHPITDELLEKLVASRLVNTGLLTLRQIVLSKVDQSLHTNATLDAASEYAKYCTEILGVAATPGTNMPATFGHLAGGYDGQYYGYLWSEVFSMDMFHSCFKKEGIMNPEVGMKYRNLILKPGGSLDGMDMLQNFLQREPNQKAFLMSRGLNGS
- assay-remarks: Nln activation, continuous quenched fluorescence substrate
- Type: biochemical
- particulars: 100% = normal enzyme turnover; mean of n = 4, 95% CI in parentheses

Check out these entries, answers already filled in.
> print(dat)
                                 compound    observed.measurement
1  N[C@@H](Cc1c[nH]cn1)C(=O)NCCCCc1ccccc1      328 (309 to 351) %
2    N[C@@H](Cc1c[nH]cn1)C(=O)NCCc1ccccc1  337.2 (302 to 378.6) %

Note: attention shifts to another entry.
Consider N[C@H](Cc1c[nH]cn1)C(=O)NCc1cccc2ccccc12 [Compound 10d] . Its measured Amax, maximum % activation achieved (95% CI) is 343 (325.2 to 363.5) %
